# Test system: diaphorase
# measurement-description: fluorescently labeled diaphorase binding to peptide array with or without excess FAD
# test-settings: 10 micromolar labeled diaphorase, excess FAD present; 65535 is detector saturation
quantity: 10 microM FAD (array fluorescence of bound diaphorase)
Write no unit; give the number alone.

// below: answered sequences
YRFPNAQSPGGSG [array peptide with C-terminal GSG linker]: 37721.5
VERASYNLDGSG [array peptide with C-terminal GSG linker]: 3374
YNRNAKSSGGSG [array peptide with C-terminal GSG linker]: 18565.25
RWKYQKFNGGSG [array peptide with C-terminal GSG linker]: 46173.5

Consider now this further sequence.
In: Please state recorded 10 microM FAD (array fluorescence of bound diaphorase) (tested on diaphorase) of ELFGALFKGGSG [array peptide with C-terminal GSG linker]
Out: 25315
